Molecular target: UniProtKB Q15303
Sequence (Q15303 26-1308): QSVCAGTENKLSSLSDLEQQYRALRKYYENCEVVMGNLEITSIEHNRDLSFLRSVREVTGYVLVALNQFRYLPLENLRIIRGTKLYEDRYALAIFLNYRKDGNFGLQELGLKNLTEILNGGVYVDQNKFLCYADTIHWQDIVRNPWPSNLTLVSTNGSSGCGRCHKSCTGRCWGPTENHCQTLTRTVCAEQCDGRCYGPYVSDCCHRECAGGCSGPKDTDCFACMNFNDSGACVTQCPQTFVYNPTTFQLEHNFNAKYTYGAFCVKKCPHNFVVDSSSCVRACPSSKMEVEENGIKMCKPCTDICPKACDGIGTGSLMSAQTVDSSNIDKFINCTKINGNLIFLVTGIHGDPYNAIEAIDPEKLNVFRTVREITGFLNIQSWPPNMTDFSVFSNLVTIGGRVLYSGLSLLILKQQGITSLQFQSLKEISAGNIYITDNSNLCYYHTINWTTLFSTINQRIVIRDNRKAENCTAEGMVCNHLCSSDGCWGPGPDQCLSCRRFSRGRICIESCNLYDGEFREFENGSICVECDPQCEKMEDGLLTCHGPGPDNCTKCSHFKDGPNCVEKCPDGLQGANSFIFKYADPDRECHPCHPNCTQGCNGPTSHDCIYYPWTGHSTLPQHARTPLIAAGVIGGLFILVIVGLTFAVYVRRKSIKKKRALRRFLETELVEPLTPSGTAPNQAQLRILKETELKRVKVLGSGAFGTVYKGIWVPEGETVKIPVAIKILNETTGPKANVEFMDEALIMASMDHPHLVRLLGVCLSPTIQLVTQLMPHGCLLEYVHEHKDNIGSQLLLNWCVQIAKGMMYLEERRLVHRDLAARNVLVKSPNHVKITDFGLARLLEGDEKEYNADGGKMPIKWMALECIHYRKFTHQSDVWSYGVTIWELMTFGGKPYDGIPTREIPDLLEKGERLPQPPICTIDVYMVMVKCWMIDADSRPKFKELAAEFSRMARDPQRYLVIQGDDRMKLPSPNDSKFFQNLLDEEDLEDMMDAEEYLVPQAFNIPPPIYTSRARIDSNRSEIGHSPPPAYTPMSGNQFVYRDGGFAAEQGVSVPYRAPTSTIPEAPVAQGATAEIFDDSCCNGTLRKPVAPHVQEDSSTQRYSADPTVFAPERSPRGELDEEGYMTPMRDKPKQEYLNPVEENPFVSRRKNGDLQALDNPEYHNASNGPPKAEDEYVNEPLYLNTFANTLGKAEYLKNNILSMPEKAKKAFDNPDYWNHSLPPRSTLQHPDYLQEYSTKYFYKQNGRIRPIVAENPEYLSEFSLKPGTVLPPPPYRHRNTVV
Assay: Kinase profiling, glass-fiber filter technology: ErbB4
Type: biochemical
Details: test concentration of 10^−6 M; read-out: ErbB4 inhibition score
measured_quantity: inhibition at 1 µM

                              sample_smiles   measured_quantity  experimental_result
0  CC(=O)N(CCO)CCCOc1cc2ncnc3c2cc1OCCCNC(=O)[C@H](C)N(C)Cc1cc(F)c(Cl)cc1N3  inhibition at 1 µM            10 to 30%
1  CN1CCCCCOc2cc3c(ncnc3cc2OCCCNCCS(C)(=O)=O)Nc2cc(Br)ccc2C1  inhibition at 1 µM                > 80%
2  COCCOCCOc1cc2ncnc3c2cc1OCCCCCN(C)Cc1ccc(Br)cc1N3  inhibition at 1 µM            10 to 30%
3  C[C@H]1C(=O)NCCCOc2cc3c(ncnc3cc2OCCCN2CCN(C(=O)OC(C)(C)C)CC2)Nc2cc(Cl)c(F)cc2CN1C  inhibition at 1 µM            10 to 30%
4  CN1CCCCCOc2cc3c(ncnc3cc2OCCCNC(=O)OC(C)(C)C)Nc2cc(Br)ccc2C1  inhibition at 1 µM            10 to 30%
5  CN1CCCCCOc2cc3c(ncnc3cc2OCCCNCCS(C)(=O)=O)Nc2cc(Cl)c(F)cc2C1  inhibition at 1 µM                > 80%
6  COc1cc2ncnc3c2cc1OCCCN(CCCN1CCOCC1)C(=O)[C@H](CC(C)C)NC(=O)Cc1ccc(Br)cc1N3  inhibition at 1 µM            30 to 60%
7  COc1cc2ncnc3c2cc1OCCCNC(=O)[C@H](CC1CCCCC1)NC(=O)CCc1ccc(Cl)cc1N3  inhibition at 1 µM            60 to 80%
8  CC(=O)OCCN(C)CCCOc1cc2ncnc3c2cc1OCCCNC(=O)[C@H](C)N(C)Cc1cc(F)c(Cl)cc1N3  inhibition at 1 µM            30 to 60%

====

Entries and their inhibition at 1 µM values follow.
Target: Lck (h) (Homo sapiens)
Sequence (P06239 whole entry): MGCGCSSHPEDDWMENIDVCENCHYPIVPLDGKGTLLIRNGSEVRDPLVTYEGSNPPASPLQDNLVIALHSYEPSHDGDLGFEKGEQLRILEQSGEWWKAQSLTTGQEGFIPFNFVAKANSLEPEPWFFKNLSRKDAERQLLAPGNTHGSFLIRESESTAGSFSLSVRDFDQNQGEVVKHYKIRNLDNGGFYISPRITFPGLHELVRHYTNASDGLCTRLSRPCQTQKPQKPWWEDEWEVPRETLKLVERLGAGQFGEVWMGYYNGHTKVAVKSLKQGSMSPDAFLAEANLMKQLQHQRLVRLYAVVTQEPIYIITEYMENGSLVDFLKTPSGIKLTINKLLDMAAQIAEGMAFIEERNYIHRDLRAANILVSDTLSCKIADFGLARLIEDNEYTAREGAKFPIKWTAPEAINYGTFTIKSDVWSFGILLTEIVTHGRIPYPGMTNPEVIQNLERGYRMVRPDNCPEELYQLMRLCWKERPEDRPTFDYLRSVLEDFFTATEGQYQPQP
Assay: Kinase profiling, glass-fiber filter technology: Lck
Format: biochemical
Conditions: test concentration of 10^−6 M; read-out: Lck inhibition score
measured_quantity: inhibition at 1 µM

                              sample_smiles  experimental_result
0  CN1CCCCCOc2cc3c(ncnc3cc2OCCCNCCS(C)(=O)=O)Nc2cc(Cl)c(F)cc2C1                > 80%
1  CN1CCCCCOc2cc3c(ncnc3cc2OCCCNCCS(C)(=O)=O)Nc2cc(Br)ccc2C1                > 80%
2  CC(=O)NCCNCCCOc1cc2ncnc3c2cc1OCCCNC(=O)[C@H](C)N(C)Cc1cc(F)c(Cl)cc1N3                > 80%

====

Target: Lyn (h) (Homo sapiens, UniProt P07948)
Sequence (P07948 whole entry): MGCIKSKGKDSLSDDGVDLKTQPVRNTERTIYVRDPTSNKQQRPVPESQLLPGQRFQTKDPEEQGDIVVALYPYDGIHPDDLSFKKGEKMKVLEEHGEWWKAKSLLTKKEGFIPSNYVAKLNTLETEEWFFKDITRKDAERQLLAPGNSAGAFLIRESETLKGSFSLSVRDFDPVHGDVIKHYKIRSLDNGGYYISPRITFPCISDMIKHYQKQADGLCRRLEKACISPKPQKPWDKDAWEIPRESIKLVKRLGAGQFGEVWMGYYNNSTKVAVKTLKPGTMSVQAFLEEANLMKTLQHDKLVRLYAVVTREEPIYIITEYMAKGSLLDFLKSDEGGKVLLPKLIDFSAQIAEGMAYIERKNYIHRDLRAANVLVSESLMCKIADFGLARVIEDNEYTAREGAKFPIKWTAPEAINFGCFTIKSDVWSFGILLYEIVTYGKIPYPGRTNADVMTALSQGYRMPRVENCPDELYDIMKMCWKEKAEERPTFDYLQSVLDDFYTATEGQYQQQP
Assay: Kinase profiling, glass-fiber filter technology: Lyn
Format: biochemical
Conditions: test concentration of 10^−6 M; read-out: Lyn inhibition score
measured_quantity: inhibition at 1 µM

In [3]: df
Out[3]:
                                   molecule  experimental_result
0  CN1CCCCCOc2cc3c(ncnc3cc2OCCCNCCS(C)(=O)=O)Nc2cc(Br)ccc2C1 [Compound 14]                > 80%
1  COc1cc2ncnc3c2cc1OCCCN(CCCN1CCOCC1)C(=O)[C@H](CC(C)C)NC(=O)Cc1ccc(Br)cc1N3 [Int. 25]            60 to 80%
2  C[C@H]1C(=O)NCCCOc2cc3c(ncnc3cc2OCCCN2CCN(C(=O)OC(C)(C)C)CC2)Nc2cc(Cl)c(F)cc2CN1C [Int. 16]                > 80%
3  CC(=O)NCCNCCCOc1cc2ncnc3c2cc1OCCCCCN(C)Cc1ccc(Br)cc1N3 [Compound 13]                > 80%
4  CC(=O)NCCN1CCN(CCCOc2cc3ncnc4c3cc2OCCCNC(=O)[C@H](C)N(C)Cc2cc(F)c(Cl)cc2N4)CC1 [Compound 6]                > 80%
5  COc1cc2ncnc3c2cc1OCCCN(CCN1CCOCC1)C(=O)CNC(=O)Cc1ccc(Cl)cc1N3 [Compound 15]            60 to 80%

====

Entries and their inhibition at 1 µM values follow.
Target: Lyn (h) (Homo sapiens, UniProt P07948)
Assay: Kinase profiling, glass-fiber filter technology: Lyn
Assay type: biochemical
Details: test concentration of 10^−6 M; read-out: Lyn inhibition score
measured_quantity: inhibition at 1 µM

>>> df
                              sample_smiles  experimental_result
0  CC(=O)N(CCO)CCCOc1cc2ncnc3c2cc1OCCCNC(=O)[C@H](C)N(C)Cc1cc(F)c(Cl)cc1N3                > 80%
1  COCCOCCOc1cc2ncnc3c2cc1OCCCCCN(C)Cc1ccc(Br)cc1N3                > 80%
2  CN1CCCCCOc2cc3c(ncnc3cc2OCCCNCCS(C)(=O)=O)Nc2cc(Cl)c(F)cc2C1                > 80%
3  CN1CCCCCOc2cc3c(ncnc3cc2OC[C@H](O)CNCCOCCO)Nc2cc(Cl)c(F)cc2C1                > 80%
4  C#Cc1ccc2c(c1)Nc1ncnc3cc(OCCCNCCS(C)(=O)=O)c(cc13)OCCCCCN(C)C2                > 80%
5  CN1CCCCCOc2cc3c(ncnc3cc2OC[C@@H](O)CN2CCS(=O)(=O)CC2)Nc2cc(Br)ccc2C1                > 80%
6  CN1CCCCCOc2cc3c(ncnc3cc2OCCCNC(=O)OC(C)(C)C)Nc2cc(Br)ccc2C1            30 to 60%
7  COc1cc2ncnc3c2cc1OCCN(CCN1CCOCC1)C(=O)CNC(=O)Cc1ccc(Cl)cc1N3            30 to 60%

====

Target: Abl (h) (Homo sapiens)
Sequence (P00519 whole entry): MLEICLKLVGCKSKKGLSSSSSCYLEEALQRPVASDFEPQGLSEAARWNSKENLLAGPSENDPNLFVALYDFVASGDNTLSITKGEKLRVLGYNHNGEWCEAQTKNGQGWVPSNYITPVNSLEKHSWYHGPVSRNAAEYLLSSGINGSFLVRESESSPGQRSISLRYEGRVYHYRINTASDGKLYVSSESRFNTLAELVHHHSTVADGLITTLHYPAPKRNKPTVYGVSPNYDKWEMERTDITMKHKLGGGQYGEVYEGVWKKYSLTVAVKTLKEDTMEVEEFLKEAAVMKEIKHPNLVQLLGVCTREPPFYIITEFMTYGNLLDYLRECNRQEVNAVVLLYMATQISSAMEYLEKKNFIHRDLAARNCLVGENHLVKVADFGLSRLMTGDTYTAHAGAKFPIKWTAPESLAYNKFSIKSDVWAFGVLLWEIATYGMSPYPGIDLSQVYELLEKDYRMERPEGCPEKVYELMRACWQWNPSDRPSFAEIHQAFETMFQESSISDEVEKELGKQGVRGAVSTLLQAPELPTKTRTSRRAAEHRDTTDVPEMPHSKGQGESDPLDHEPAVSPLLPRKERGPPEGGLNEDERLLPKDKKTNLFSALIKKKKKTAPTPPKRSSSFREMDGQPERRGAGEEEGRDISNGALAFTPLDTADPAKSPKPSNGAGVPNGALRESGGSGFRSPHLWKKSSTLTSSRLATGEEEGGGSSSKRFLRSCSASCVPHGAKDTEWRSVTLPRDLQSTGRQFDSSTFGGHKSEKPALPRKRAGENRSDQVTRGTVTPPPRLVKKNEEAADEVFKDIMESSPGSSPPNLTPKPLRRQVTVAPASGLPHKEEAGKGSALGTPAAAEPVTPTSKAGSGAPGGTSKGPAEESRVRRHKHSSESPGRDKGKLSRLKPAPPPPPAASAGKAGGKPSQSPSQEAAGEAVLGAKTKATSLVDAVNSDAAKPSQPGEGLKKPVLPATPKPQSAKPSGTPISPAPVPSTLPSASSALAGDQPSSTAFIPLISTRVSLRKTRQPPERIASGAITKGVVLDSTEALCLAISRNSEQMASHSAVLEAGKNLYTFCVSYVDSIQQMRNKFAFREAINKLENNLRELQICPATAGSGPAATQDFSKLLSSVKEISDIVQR
Assay: Kinase profiling, glass-fiber filter technology: Abl
Format: biochemical
Details: test concentration of 10^−6 M; read-out: Abl inhibition score
measured_quantity: inhibition at 1 µM

>>> print(df.to_string())
                              sample_smiles  experimental_result
0  COc1cc2ncnc3c2cc1OCCCN(CCN1CCOCC1)C(=O)CNC(=O)Cc1ccc(Cl)cc1N3                > 80%
1  CC(=O)NCCN1CCN(CCCOc2cc3ncnc4c3cc2OCCCNC(=O)[C@H](C)N(C)Cc2cc(F)c(Cl)cc2N4)CC1                > 80%
2  COc1cc2ncnc3c2cc1OCCCNC(=O)[C@H](CC1CCCCC1)NC(=O)CCc1ccc(Cl)cc1N3            10 to 30%
3  COCCOCCOc1cc2ncnc3c2cc1OCCCCCN(C)Cc1ccc(Br)cc1N3            60 to 80%
4  CN1CCCCCOc2cc3c(ncnc3cc2OC[C@H](O)CNCCOCCO)Nc2cc(Cl)c(F)cc2C1                > 80%
5  CN1CCCCCOc2cc3c(ncnc3cc2OCCCNCCS(C)(=O)=O)Nc2cc(Cl)c(F)cc2C1                > 80%
6  COc1cc2ncnc3c2cc1OCCCN(CCCN1CCOCC1)C(=O)[C@H](CC(C)C)NC(=O)Cc1ccc(Br)cc1N3            10 to 30%

====

Target: cSRC (h) (Homo sapiens, UniProt P12931)
Sequence (P12931 whole entry): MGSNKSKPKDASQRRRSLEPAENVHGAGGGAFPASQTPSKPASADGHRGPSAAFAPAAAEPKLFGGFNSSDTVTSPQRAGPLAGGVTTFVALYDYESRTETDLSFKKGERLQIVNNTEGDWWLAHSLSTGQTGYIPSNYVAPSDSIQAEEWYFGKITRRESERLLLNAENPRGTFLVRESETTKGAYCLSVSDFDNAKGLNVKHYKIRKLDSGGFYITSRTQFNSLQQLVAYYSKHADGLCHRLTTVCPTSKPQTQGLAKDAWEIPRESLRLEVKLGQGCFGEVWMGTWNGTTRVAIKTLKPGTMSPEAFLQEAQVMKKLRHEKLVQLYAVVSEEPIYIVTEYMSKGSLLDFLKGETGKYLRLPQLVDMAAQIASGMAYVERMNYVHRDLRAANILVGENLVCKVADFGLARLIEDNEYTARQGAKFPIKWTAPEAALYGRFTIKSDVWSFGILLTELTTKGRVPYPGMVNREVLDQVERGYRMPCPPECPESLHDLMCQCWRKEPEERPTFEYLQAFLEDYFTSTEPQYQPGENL
Assay: Kinase profiling, glass-fiber filter technology: cSRC
Type: biochemical
Details: test concentration of 10^−6 M; read-out: cSRC inhibition score
Entries and their inhibition at 1 µM values follow.
measured_quantity: inhibition at 1 µM

>>> print(df.to_string())
                                   compound   measured_quantity  experimental_result
0  CC(=O)NCCNCCCOc1cc2ncnc3c2cc1OCCCNC(=O)[C@H](C)N(C)Cc1cc(F)c(Cl)cc1N3 [Compound 4]  inhibition at 1 µM                > 80%
1  CN1CCCCCOc2cc3c(ncnc3cc2OC[C@H](O)CNCCOCCO)Nc2cc(Cl)c(F)cc2C1 [Compound 17]  inhibition at 1 µM                > 80%
2  COc1cc2ncnc3c2cc1OCCCN(CCCN1CCOCC1)C(=O)[C@H](CC(C)C)NC(=O)Cc1ccc(Br)cc1N3 [Int. 25]  inhibition at 1 µM            30 to 60%
3  CN1CCCCCOc2cc3c(ncnc3cc2OCCCNCCS(C)(=O)=O)Nc2cc(Br)ccc2C1 [Compound 14]  inhibition at 1 µM                > 80%
